These measurements were taken from patent US6479531B1.

- STUDY SYSTEM: CCKB receptor (Mus musculus, UniProt P56481)
- Construct: The whole brains from male mice (CD1 22-25 g; Charles River) were removed; from tissue; host or cells: cerebral cortex membranes of male CD1 mice
- Sequence (P56481 whole entry): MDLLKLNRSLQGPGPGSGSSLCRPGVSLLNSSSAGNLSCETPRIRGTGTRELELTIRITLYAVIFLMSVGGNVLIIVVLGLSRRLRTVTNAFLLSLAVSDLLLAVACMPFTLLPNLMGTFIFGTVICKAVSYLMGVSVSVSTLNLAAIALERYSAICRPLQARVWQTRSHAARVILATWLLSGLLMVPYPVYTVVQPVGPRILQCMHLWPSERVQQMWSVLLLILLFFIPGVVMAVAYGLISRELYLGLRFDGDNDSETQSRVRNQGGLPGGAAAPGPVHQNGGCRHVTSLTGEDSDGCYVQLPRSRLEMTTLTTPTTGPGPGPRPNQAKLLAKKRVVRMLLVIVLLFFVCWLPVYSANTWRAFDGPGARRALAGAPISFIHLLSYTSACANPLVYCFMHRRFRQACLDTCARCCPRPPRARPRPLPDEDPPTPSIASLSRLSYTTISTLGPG
- ASSAY METHOD TEXT: CCKB receptor radioligand binding assay in mouse cortical membranes
- ASSAY SETUP: [125I]-CCK8(S) 200 pM, 150 min at 21±3°, read-out: CCKB pKi (converted)
PROPERTY NAME: Ki (nM)
State the answer as a number, implicitly in nM.

# annotated cases, reported Ki shown
1) O=C(O)c1cccc(NC(=O)c2nc(-c3ccncc3)[nH]c2CCC23CC4CC(CC(C4)C2)C3)c1	1860
2) CC12CC3CC(C)(C1)CC(CCc1[nH]c(C4CCCCC4)nc1C(=O)Nc1cccc(C(=O)O)c1)(C3)C2	251
3) O=C(O)c1cccc(NC(=O)c2nc(-c3ccccc3)[nH]c2CCC2CCCCCC2)c1	1120
4) Cc1ccc(-c2nc(C(=O)Nc3cccc(C(=O)O)c3)c(CCC34CC5CC(CC(C5)C3)C4)[nH]2)c(C)c1	83.2
5) Cc1ccccc1-c1nc(C(=O)Nc2cc(C(=O)O)ccc2Cl)c(CCC23CC4CC(CC(C4)C2)C3)[nH]1	7590

Q) What does the record list as Ki for O=C(O)c1cccc(NC(=O)c2nc(-c3cc(Cl)cc(Cl)c3)[nH]c2CCC23CC4CC(CC(C4)C2)C3)c1 ?
A) 912

Q) What does the record list as Ki for O=C(O)c1cccc(NC(=O)c2nc(-c3ccccc3Br)[nH]c2CCC23CC4CC(CC(C4)C2)C3)c1 ?
A) 251
